- MEASURED ON: Glucose transporter (Leishmania mexicana)
- ASSAY: ST_JUDE_LEISH: Cytotoxicity at 2uM final concentration against transgenic Leishmania Mexicana promastigotes LmGT2 that are glucose transport deficient and complemented with the L. Mexicana glucose transporter 2. Activity is measured by DNA content using SYBR green in vitro
- Format: functional
READOUT: inhibition (%)

INSERT INTO results (compound, unit_of_measure, value_observed) VALUES
  ('Oc1ccccc1CN1CCC(CCOC(c2ccccc2)c2ccc(Cl)cc2)CC1 (stereo not given)', '%', 13.9),
  ('Cn1nc(C(F)(F)F)cc1-c1ccc(C(=O)NC2CCC(CN3CCC(c4c[nH]c5ccccc45)CC3)CC2)s1 (stereo not given)', '%', 2.24),
  ('CC[C@H]1CN2CC[C@@H]1C[C@H]2[C@H](O)c1cc(-c2ccccc2)nc2ccc(O)cc12', '%', 2.83),
  ('COCCSc1ccc(CC(C)NCC(O)c2cccc(Cl)c2)cc1 (stereo not given)', '%', 0.74),
  ('CC[C@H]1CN2CC[C@@H]1C[C@H]2[C@H](O)c1ccnc2ccc(Cl)cc12', '%', 3.25),
  ('NC(=O)CN1CC=C(c2c[nH]c3ccc(Br)cc23)CC1', '%', 0.77),
  ('CC(=O)C1(c2ccccc2)CCN(CCC2(c3ccc(Cl)c(Cl)c3)CN(C(=O)C3CCCC3)CCO2)CC1 (stereo not given)', '%', 0.75),
  ('COc1cccc(CN2CCC(CCOC(c3ccccc3)c3ccc(Cl)cc3)CC2)c1O (stereo not given)', '%', 12.5),
  ('O=C(/C=C/c1ccc(Cl)c(Cl)c1)Nc1cccc(CN2CCC(c3c[nH]c4ccccc34)CC2)c1', '%', 5.33),
  ('CC(C)CNCc1ccc(-c2cccc(CN(C(=O)NC3CCCCC3)C3CCN(Cc4ccccc4)CC3)c2)cc1', '%', 3.1),
  ('CC[C@H]1CN2CC[C@@H]1C[C@H]2[C@H](O)c1ccnc2ccc(OC)cc12', '%', 3.26),
  ('OC(CNC1CCCCCC1)c1ccc(Cl)c(Cl)c1 (stereo not given)', '%', -0.87),
  ('Cc1c2ccncc2c(C)c2c1[nH]c1ccccc12', '%', 14.7),
  ('O=C(NC1CCN(CC2(c3ccc(Cl)cc3)CCC2)CC1)c1cc[nH]n1', '%', -1.02),
  ('CCc1ccc(CN2CCC(CN(C(=O)c3ccccc3)c3ccc(Cl)cc3)CC2)cc1', '%', 5.04),
  ('CC1(C)CCCN(C(=O)Cc2ccc3c(c2)CCCC3)C1CN1CC=CC1 (stereo not given)', '%', 8.93),
  ('Oc1ccc2[nH]cc(C3=CCN(CCc4ccccc4)CC3)c2c1', '%', 13.4),
  ('COC(=O)c1ccc(CC(C)NCC(O)c2cccc(SC(F)(F)F)c2)cc1 (stereo not given)', '%', 4.01),
  ('Cc1[nH]c2ccccc2c1C1=CCN(CCCCCNC(=O)/C=C/c2ccc(Cl)c(Cl)c2)CC1', '%', 5.48),
  ('O=C(/C=C/c1ccc(Cl)c(Cl)c1)NCC1CCC(CN2CCC(c3c[nH]c4ccccc34)CC2)CC1 (stereo not given)', '%', 1.76);
